Tested on: Plasmodium falciparum
Assay: GSK_TCMDC: Inhibition of Plasmodium falciparum Dd2 in whole red blood cells, using parasite LDH activity as an index of growth. Test compounds present at 2uM
Format: functional
ASSAY_READOUT: Inhibition
Field note: include the unit after the figure.

COMPOUND	Inhibition
O=c1ccc2ccc(F)cc2n1CCN1CCC(NCc2ccc(-c3ccccn3)s2)CC1	30%
c1ccc(Oc2ccc(Nc3ccnc4cc(-c5ccc(CN6CCOCC6)o5)ccc34)cc2)nc1	73%
Cc1ccccc1C1CCN(C2CCC(NC(=O)c3ccc(-c4ccccc4F)o3)CC2)CC1 (centres undefined)	66%
COc1ccc(-c2cccc(NC(=O)c3ccc(Cl)cc3)c2)cc1CN(C)CCN(C)C.O=C(O)C(F)(F)F	61%
CCCCCCCc1[nH]c2ccccc2c(=O)c1C	96%
O=C(N[C@@H](CC1CCCCC1)C(=O)NCCN1CCCC1)c1ccc(O)c(-c2cccc(C(F)(F)F)c2)c1	55%

**Q:** Give reported Inhibition value for Cc1cccc2nc(-c3ccc(-c4cccc(C(=O)N5CCCCC5C(C)O)c4)s3)[nH]c12 (centres undefined)
**A:** 53%

**Q:** Give reported Inhibition value for O=C1NC(=O)C(c2ccc(Cl)cc2)=C1Nc1cccc(S(=O)(=O)C(F)(F)F)c1
**A:** 51%

**Q:** Give reported Inhibition value for COc1cccc(CN2CCC(N3CCc4cc(NC(=O)c5cc(C)on5)ccc43)C2)c1OC (centres undefined)
**A:** 92%

---

Recorded measurements of Inhibition, one per entry
Tested on: Plasmodium falciparum
Experiment: GSK_TCMDC: Inhibition of Plasmodium falciparum Dd2 in whole red blood cells, using parasite LDH activity as an index of growth. Test compounds present at 2uM
Type: functional
Response body: numeric value in %, unit text excluded.

MOLECULE	ASSAY_READOUT	NUMERIC_READOUT
COc1ccc(N2CCN(CCCCNC(=O)c3ccc(/C=C/c4ccc(Cl)c(Cl)c4)cc3)CC2)c(OC)c1	Inhibition	51
COCCOC(=O)C(=O)c1c(-c2ccccc2)c(-c2ccc(OC)c(OC)c2)c2c3cc(OC)c(OC)cc3ccn12	Inhibition	100

**Q:** Give reported Inhibition value for CCCCCC(C)N/C(=N/c1ccccc1Br)Nc1ccc([N+](=O)[O-])cc1O (stereo not drawn)
**A:** 98

**Q:** Give reported Inhibition value for O=C(NC1CCN(Cc2ccccc2)CC1)c1ccc(-c2nc3cc(Cl)c(F)cc3[nH]2)s1
**A:** 99

**Q:** Give reported Inhibition value for CCOc1ccc(-c2nonc2NC(=O)c2ccc(Cl)cc2)cc1OCC
**A:** 47

**Q:** Give reported Inhibition value for O=C(Nc1ccc(Br)cc1)N(CCN1CCOCC1)CC(O)COCc1ccc(F)cc1.O=C(O)C(F)(F)F (stereo not drawn)
**A:** 3

**Q:** Give reported Inhibition value for CCC[C@@H]([C@@H](CC1CCCCC1)C(=O)N[C@@H](CCCCNS(C)(=O)=O)C(=O)Nc1nccs1)N(O)C=O
**A:** 74

**Q:** Give reported Inhibition value for CC1=NN(c2ccc(C)c(C)c2)C(=O)C1=NNc1cccc(-c2cccc(NC(=O)OC(C)(C)C)c2)c1O
**A:** 21

---

System: HepG2
Assay: GSK_TCMDC: Percent inhibition of human HepG2 cell line. Test compounds present at 10uM.
Assay type: functional
ASSAY_READOUT: Inhibition (%)
Response body: numeric value in %, unit text excluded.

MOLECULE	Inhibition, %
CN1C(=C2SC(=Nc3ccc4ncccc4c3)N(Cc3ccccc3)C2=O)Sc2ccc(Cl)cc21	4
Cc1c(C(=O)Nc2cc(Sc3ccc(F)cc3)cc([N+](=O)[O-])c2)sc2ncn(Cc3ccccc3F)c(=O)c12	2
O=C(Cc1c[nH]cn1)Nc1cccc(-c2ccc(-c3nc4cc(C(F)(F)F)ccc4[nH]3)s2)c1	5
COc1ccc(NC(=O)/C=C/c2ccc(Oc3ccccc3Cl)c([N+](=O)[O-])c2)cc1OCCN(C(C)C)C(C)C	31
CCN1CCN(c2cc(C)c3cc(NC(=O)c4cc(OC)cc(OC)c4)ccc3n2)CC1	0
COc1cccc(-c2c(C#N)c(N)nc3c2c(C)nn3-c2ccccc2)c1O	4

**Q:** Give reported Inhibition value for CCc1cn2c3c(cc(C(=O)N[C@@H](Cc4cc(F)cc(F)c4)[C@H](O)CNC4CCOCC4)cc13)N(C)S(=O)(=O)CC2.O=CO
**A:** 1

**Q:** Give reported Inhibition value for Cc1cccc2nc(-c3cccc(-c4ccc(NC(=O)Nc5ccc(Cl)cc5)cc4)c3)[nH]c12
**A:** 63

**Q:** Give reported Inhibition value for CCOc1ccc(C(C)NC(=O)Nc2ccccc2)cc1OCC (centres undefined)
**A:** 14

Data provenance is ChEMBL document CHEMBL1157539.
